Let's look at some molecules and their measured inhibition at 0.1 µM.
Biological target: PI3K-δ (PI3K(p1108/p857) (h)) (Homo sapiens, UniProt O00329)
Sequence (O00329 whole entry): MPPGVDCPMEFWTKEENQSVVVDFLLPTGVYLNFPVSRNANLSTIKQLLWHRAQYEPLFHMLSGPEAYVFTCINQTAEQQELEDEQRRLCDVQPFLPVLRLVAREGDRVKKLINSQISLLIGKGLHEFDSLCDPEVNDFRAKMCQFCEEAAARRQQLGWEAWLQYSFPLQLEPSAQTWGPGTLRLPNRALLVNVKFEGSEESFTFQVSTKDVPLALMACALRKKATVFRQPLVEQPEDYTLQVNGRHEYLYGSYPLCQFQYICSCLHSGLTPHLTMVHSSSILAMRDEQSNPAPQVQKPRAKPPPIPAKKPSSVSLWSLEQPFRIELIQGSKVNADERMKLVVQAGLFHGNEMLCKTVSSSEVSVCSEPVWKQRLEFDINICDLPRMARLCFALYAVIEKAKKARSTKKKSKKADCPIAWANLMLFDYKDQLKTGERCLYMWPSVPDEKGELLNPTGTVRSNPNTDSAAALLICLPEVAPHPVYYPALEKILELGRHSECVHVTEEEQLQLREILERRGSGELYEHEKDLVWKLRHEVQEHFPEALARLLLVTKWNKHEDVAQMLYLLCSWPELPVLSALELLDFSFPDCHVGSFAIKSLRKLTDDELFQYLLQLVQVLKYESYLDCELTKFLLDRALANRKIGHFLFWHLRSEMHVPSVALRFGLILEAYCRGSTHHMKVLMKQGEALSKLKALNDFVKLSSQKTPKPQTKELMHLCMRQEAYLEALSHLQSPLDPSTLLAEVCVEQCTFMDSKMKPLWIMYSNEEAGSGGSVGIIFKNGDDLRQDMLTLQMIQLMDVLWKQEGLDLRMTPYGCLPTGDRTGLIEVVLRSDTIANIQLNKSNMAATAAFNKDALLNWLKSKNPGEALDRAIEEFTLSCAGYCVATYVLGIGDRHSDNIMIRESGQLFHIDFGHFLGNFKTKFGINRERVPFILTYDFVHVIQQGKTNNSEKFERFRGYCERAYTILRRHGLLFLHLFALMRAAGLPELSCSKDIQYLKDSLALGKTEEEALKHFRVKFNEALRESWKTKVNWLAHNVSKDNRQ
Sequence (P27986 whole entry partner): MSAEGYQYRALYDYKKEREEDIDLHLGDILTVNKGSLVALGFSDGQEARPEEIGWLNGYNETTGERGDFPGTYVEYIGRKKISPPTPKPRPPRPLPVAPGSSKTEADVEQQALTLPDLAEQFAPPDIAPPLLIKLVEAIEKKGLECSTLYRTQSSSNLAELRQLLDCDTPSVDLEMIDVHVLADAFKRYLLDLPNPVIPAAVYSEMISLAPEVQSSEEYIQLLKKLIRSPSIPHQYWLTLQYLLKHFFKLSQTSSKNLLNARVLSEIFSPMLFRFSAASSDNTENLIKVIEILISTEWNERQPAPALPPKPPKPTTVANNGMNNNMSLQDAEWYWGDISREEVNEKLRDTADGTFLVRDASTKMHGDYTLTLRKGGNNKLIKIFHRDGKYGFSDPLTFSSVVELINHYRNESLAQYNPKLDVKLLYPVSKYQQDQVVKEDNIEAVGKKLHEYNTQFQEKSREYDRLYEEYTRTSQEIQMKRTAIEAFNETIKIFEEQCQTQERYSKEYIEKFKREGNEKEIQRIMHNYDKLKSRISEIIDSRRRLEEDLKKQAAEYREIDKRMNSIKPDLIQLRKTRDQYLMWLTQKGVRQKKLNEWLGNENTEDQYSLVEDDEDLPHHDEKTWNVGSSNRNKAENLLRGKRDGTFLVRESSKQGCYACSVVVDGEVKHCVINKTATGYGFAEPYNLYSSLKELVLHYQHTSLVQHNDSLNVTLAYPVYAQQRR
Assay: Evaluation of inhibitory activity against PI3K-δ (HTRF kinase assay)
Format: biochemical
Conditions: compound at 0.1 μM; read-out: EXP_VALUE(% Inhibition) PI3K-δ 0.1 μM
Entry rule: numbers only, all in %.

C[C@H](Nc1ncnc2[nH]ccc(=O)c12)c1c(Cl)c2cccc(S(C)(=O)=O)c2c(=O)n1-c1ccccc1 : 89

Task item: Using the record for C[C@H](Nc1ncnc2[nH]ccc(=O)c12)c1c(Cl)c2cccc(Sc3ncccn3)c2c(=O)n1-c1ccccc1 , report its inhibition at 0.1 µM.
Reply: 20

Task item: Using the record for C[C@H](Nc1ncnc2[nH]ccc(=O)c12)c1c(Cl)c2cccc(-c3cc4ccccc4[nH]3)c2c(=O)n1-c1ccccc1 , report its inhibition at 0.1 µM.
Reply: 76

Task item: Using the record for CC(=O)c1ncc(-c2cccc3c(Cl)c([C@H](C)Nc4ncnc5[nH]ccc(=O)c45)n(-c4ccccc4)c(=O)c23)cn1 , report its inhibition at 0.1 µM.
Reply: 80

Task item: Using the record for COc1ncc(-c2cccc3cc([C@H](C)Nc4ncnc5[nH]ccc(=O)c45)n(-c4ccccc4)c(=O)c23)cn1 , report its inhibition at 0.1 µM.
Reply: 79

Task item: Using the record for CCOC(C)(C)c1ncc(-c2cccc3c(Cl)c([C@H](C)Nc4ncnc5[nH]ccc(=O)c45)n(-c4ccccc4)c(=O)c23)cn1 , report its inhibition at 0.1 µM.
Reply: 70
